molecular target: Estrogen receptor (Homo sapiens); experiment: OT_ERa_GFPERaERE_0120: Odyssey Thera (OT) 2-hour HeLa Transcription Induction Assay for Estrogen Receptor (AID 2283382)
The source made the active and inactive calls. Rule for the calls: active = hit-call score of the fitted dose curve at least 0.9, where 1 is the maximum; inconclusive = response in the unintended direction; inactive = score below 0.9.
Pick from label 1 = active, label 0 = inactive when you respond.

**Query** State the result this test recorded for "CCCCC/C=C\CCC=O" .
**Result** label 0

**Query** What is the recorded call for this compound in the test? "Cc1ccc(C(C)c2ccc(C)c(C)c2)cc1C"
**Result** label 0

**Query** Record lookup: outcome of this test for "O=C(c1ccccc1)C1CCC1" ?
**Result** label 0

**Query** Which outcome was entered for the compound "O=C(C(Cl)Cl)N1CCOC12CCCCC2" in this test?
**Result** label 0

**Query** # outcome recorded in this test, key = "CCCCCCCC[N+](C)(CCCCCCCC)CCCCCCCC"
**Result** label 1

###

read-out: Tissue plasminogen activator (tPA), PLAT (gene 5327); test: BSK_BE3C_tPA: BioMAP Diversity Plus: BE3C Assay for Tissue plasminogen activator (tPA) Biomarker Activity (AID 2283041); conditions: primary human bronchial epithelial cells; actives raise or lower the signal;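 for outcome: tPA level quantified by ELISA one day after compound addition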
The source made the active and inactive calls. The calls were made as follows: active = hit-call score of the fitted dose curve at least 0.9, where 1 is the maximum; inactive = score below 0.9.
Response enum: active, inactive

**Query** Record lookup: outcome of this test for "CO[Si](OC)(OC)c1ccccc1" ?
**Result** inactive

**Query** Could you please tell me the result logged for "O=C(Cl)c1cc(C(=O)Cl)cc(C(=O)Cl)c1" in this assay?
**Result** active

**Query** // return assay outcome for CC1OC1C1CCC2(C)OC2C1 (centres undefined)
**Result** inactive

**Query** What did this assay record as the result for "O=Nc1ccc(O)cc1" ?
**Result** inactive

**Query** Identify the outcome logged in this assay for the compound shown: C=CCOCC(O)CCl (centres undefined)
**Result** inactive

**Query** Status in this test for "COc1ccc2nc(N)sc2c1" ?
**Result** inactive

**Query** Hello, I am checking results. What call was entered for "CCO[Si](CCCN=C=O)(OCC)OCC" ?
**Result** inactive

**Query** Dear colleague, could you share the recorded outcome for "O=C(c1ccc(O)cc1)c1ccc(O)cc1O" when you have a moment?
**Result** inactive

**Query** Would you mind telling me which call this test gave "C/C=C\C/C=C/CCCCCCCCOC(C)=O" ?
**Result** inactive

**Query** GET /call?item= "CC(C)C(=O)C(C)C" returns the recorded outcome of this test.
**Result** inactive

**Query** Given "CCCCCCCCCCCCCCCC[N+](C)(C)CC" , state the outcome it received in this test.
**Result** active

**Query** Dear all, I need the recorded test outcome for "COCc1c(C(C)C)nc(C(C)C)c(/C=C/[C@@H](O)C[C@@H](O)CC(=O)O)c1-c1ccc(F)cc1" , thank you.
**Result** inactive

**Query** Called result for "O=C1CCCN1CCO"
**Result** inactive

**Query** Per the assay record, what outcome was assigned to "c1ccc(-c2ccccn2)nc1" ?
**Result** inactive

**Query** Identify the outcome logged in this assay for the compound shown: "C=C[Si](OC(C)=O)(OC(C)=O)OC(C)=O"
**Result** inactive

**Query** How did this test come out for CN1C(=O)N(C)C(O)C1O (centres undefined) ?
**Result** inactive

**Query** Each compound tested received a call. Report the one for "S=C(NC1CCCCC1)NC1CCCCC1" .
**Result** inactive

**Query** Recorded test outcome, item C=CC(=O)OCC(Br)CBr (centres undefined)
**Result** inactive

**Query** What did this assay record as the result for "C=CC=CC=CCCCCC" ?
**Result** inactive

**Query** Outcome logged for "CCOc1nc(F)cc2nc(S(=O)(=O)Nc3c(Cl)cccc3C(=O)OC)nn12" in this assay:
**Result** inactive

**Query** Kindly provide the recorded test outcome for the following compound: C#CC1(O)CC[C@H]2[C@@H]3CCC4=CCCC[C@@H]4[C@H]3CC[C@@]21C (some centres undefined)
**Result** inactive

**Query** Call for entry "CCO[Si](C)(OCC)OCC" :
**Result** inactive

**Query** Just curious, what result did "CCCCC/C=C\C/C=C\CCCCCCCC(=O)OC" get here?
**Result** inactive

**Query** Write down the call the test reported for this compound. Item: "C=CCOc1c(Br)cc(Br)cc1Br"
**Result** active

###

experiment: ATG_FoxO_CIS: Attagene CIS-FACTORIAL HepG2 Assay for human Forkhead box O (FoxO) (AID 2282943); details: HepG2 Attagene cis-reporter, FoxO element, mRNA; actives raise or lower the signal
Activity calls are given as the source filed them. The calls were made as follows: active = hit-call score of the fitted dose curve at least 0.9, where 1 is the maximum; inactive = score below 0.9.
Permitted responses: yes = active, no = inactive

**Query** Write down the call the test reported for this molecule. Item: "CC(=O)Nc1ccc2c(c1)Cc1cc(NC(C)=O)ccc1-2"
**Result** no

**Query** Identify the outcome logged in this assay for the molecule shown: "CCCCCCCC/C=C\CCCCCCCC(=O)O"
**Result** no

**Query** I'd appreciate the recorded outcome for CCCC(C)CCC(C)=O (stereo not drawn) from this test.
**Result** no

**Query** Dear colleague, could you share the recorded outcome for "O=C(Nc1ccccc1)c1ccccc1O" when you have a moment?
**Result** no

**Query** Answer briefly: the call reported for "CC(C)(C)c1ccc(N)cc1" in this assay.
**Result** no

**Query** Identify the outcome logged in this assay for the molecule shown: "C[C@]12C=CC(=O)C=C1CC[C@@H]1[C@@H]2[C@@H](O)C[C@@]2(C)[C@H]1CC[C@]2(O)C(=O)CO"
**Result** no

**Query** Please share the test call associated with "C=C(C)C(=O)OCCOc1ccccc1" .
**Result** no

**Query** Hi, do you know how "Cc1ccc(N)c([N+](=O)[O-])c1" came out in this test?
**Result** no

**Query** Could you kindly confirm the outcome this assay logged for NC(=O)C1CO1 (stereo not drawn) ?
**Result** no

**Query** Hi team, can someone confirm the assay call for "CCOC(=O)c1ccccc1C(=C1C=C(Br)C(=O)C(Br)=C1)c1cc(Br)c(O)c(Br)c1" ?
**Result** yes

**Query** I would be grateful if you could indicate the recorded call for CCCCC(CC)COC(=O)c1ccccc1 (stereo not drawn) .
**Result** no

**Query** What outcome does the record of this test show for "FC(F)=C(F)OC(F)(F)C(F)(F)C(F)(F)F" ?
**Result** no

**Query** Record request — test call for "CCN(CCO)c1cccc(C)c1"
**Result** no

###

read-out: E-selectin (Homo sapiens); assay: BSK_SAg_Eselectin: BioMAP Diversity Plus: SAg Assay for Eselectin Biomarker Activity (AID 2283091); conditions: primary human HUVEC with PBMC; actives raise or lower the signal
Active and inactive are the calls of the source. Rule for the calls: active = hit-call score of the fitted dose curve at least 0.9, where 1 is the maximum; inactive = score below 0.9.
endpoint: AC50

Reference set (4 entries):
compound | AC50
O=C(c1ccc(O)cc1)c1ccc(O)cc1O | inactive
CN1C(=O)N(C)C(O)C1O (stereo unspecified) | inactive
O=Nc1ccc(O)cc1 | inactive
CCO[Si](CCCN=C=O)(OCC)OCC | inactive

**Query** For the compound CC1OC1C1CCC2(C)OC2C1 (stereo unspecified) , give its reported AC50.
**Result** inactive

**Query** Item CCCCC(CC)COC(=O)c1ccccc1O (stereo unspecified) : provide AC50
**Result** inactive

**Query** Item "O=C1CCCN1CCO" : provide AC50
**Result** inactive

###

experiment: ATG_NRF2_ARE_CIS: Attagene CIS-FACTORIAL HepG2 Assay for human Nuclear Factor Erythroid 2 Related Factor 2 (NFR2) response to Antioxidant Response Elements (ARE) (AID 2282992); settings: HepG2 Attagene ARE/NRF2 reporter, transcription factor activity; actives raise or lower the signal;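 for AC50: reporter mRNA level measured by RT-PCR and capillary electrophoresis fluorescence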
Active and inactive are the calls of the source. How the source made its calls: active means hit-call score of the fitted dose curve at least 0.9, where 1 is the maximum; inactive means score below 0.9.
endpoint: AC50

Please review the entries below; each comes with its answer.
molecule | endpoint | recordedValue
O=C1OC(=O)c2cc(Oc3ccc4c(c3)C(=O)OC4=O)ccc21 | AC50 | inactive
O=P(O)(O)Oc1ccccc1 | AC50 | inactive
c1ccc(CNCc2ccccc2)cc1 | AC50 | inactive
O=[N+]([O-])C1(Br)COCOC1 | AC50 | inactive
O=C(Oc1ccccc1)c1ccc2ccccc2c1O | AC50 | 18.3 µM (active)
C=CC(=O)NC(C)(C)CS(=O)(=O)O | AC50 | inactive
CCCOC(=O)CCCCC(=O)OCCC | AC50 | inactive
O=S1(=O)OC(c2ccc(O)cc2)(c2ccc(O)cc2)c2ccccc21 | AC50 | inactive

**Query** Please give measured AC50 of the following entry: CCCCC(CC)COC(=O)c1ccccc1O (stereo not drawn)
**Result** inactive

**Query** Please report AC50 for the following molecule: Cc1ccc(C2OC[C@@H]3OC(c4ccc(C)cc4)O[C@H]([C@H](O)CO)[C@@H]3O2)cc1 (stereo partly drawn)
**Result** 100 µM (active)

**Query** Recall and state the measured AC50 for "C=CCCCCCCCCC(=O)OCCCC" .
**Result** inactive

**Query** Give me measured AC50, please, for this molecule: "C=C(C)C(=O)OCC(C)C"
**Result** inactive

**Query** Supply recorded AC50 for "CCOC(=O)N1CCC(=C2c3ccc(Cl)cc3CCc3cccnc32)CC1" here.
**Result** inactive
